- System: live SARS-CoV-2 Delta variant (B.1.617.2)
- MEASUREMENT CONTEXT: live Delta variant (B.1.617.2, 2 h)
Positions of bridges follow the written chain, without caps; N, C: chain ends. No end group written: not given here.
RESULT TYPE: IC50 (nM)
Express your answer in nM, writing the number without its unit.

Data request: Give IC50 for the following sequence: DCAWHLGELVWCTSLDQINVTFLDLEYEMKKLEEAIKKLEESYIDLKEL (disulfide 2-12) [IBP-EK1]
Data returned: 204

====

- Tested on: Pseudotyped SARS-CoV-2 BA.2.75
- MEASUREMENT CONTEXT: Pseudotyped BA.2.75, 48 h
Positions of bridges follow the written chain, without caps; N, C: chain ends. No end group written: not given here.
RESULT TYPE: IC50 (µM)
Express your answer in µM, writing the number without its unit.

Data request: Give IC50 for the following sequence: DCAWHLGELVWCTSLDQINVTFLDLEYEMKKLEEAIKKLEESYIDLKEL (disulfide 2-12) [IBP-EK1]
Data returned: 0.221
